Origin of the recorded values: patent US5608084A

System: HepG2
Assay: Incorporation of 14C-acetate in the lipidic classes in HepG2 cells (hypolipidaemic activity)
Assay type: cell-based, human
Details: Homo sapiens, HepG2; 1 μM; read-out: Incorporation of 14C-acetate: Cholesterol, percent referred to physiological solution
test_readout: inhibition at 1 µM
Please don't drop the unit; write it after the number.

Example entries and their recorded answers appear below.
{"molecule": "Cc1c(C)c2c(c(C)c1O)CCC(C)OC(=O)C(C)(C)CCCO2 (stereo not shown)", "reported_measurement": "26%"}
{"molecule": "Cc1ccc(C)c(OCCCC(C)(C)C(=O)O)c1 [Gemfibrozil, reference compound]", "reported_measurement": "34%"}
{"molecule": "CC(C)(Sc1cc(C(C)(C)C)c(O)c(C(C)(C)C)c1)Sc1cc(C(C)(C)C)c(O)c(C(C)(C)C)c1 [Probucol, reference compound]", "reported_measurement": "55%"}

Inquiry: Dear colleague, I am looking for the recorded inhibition at 1 µM of the following molecule: CCC1CCc2c(C)c(O)c(C)c(C)c2OCCCC(C)(C)C(=O)O1 (stereo not shown)
Reply text: 25%
